# Species: Rattus norvegicus
# test-protocol: Open TG-GATES - Regimen: Daily Repeat
# Type: toxicity, organism-based, Sprague-Dawley
# Set-up: regimen Daily Repeat, gender Male, age 6 weeks
# assay-context: in vivo, po, 1000 mg/kg, […], tissue Blood, route gavage, dose level High, time 14 day
recorded-metric: Neu

[[record]]
molecule = "Cc1nnc2n1-c1ccc(Cl)cc1C(c1ccccc1Cl)=NC2"
recorded_metric = "Neu"
result = "16.8%"

[[record]]
molecule = "CN/C(=N/CCSCc1nc[nH]c1C)NC#N"
recorded_metric = "Neu"
result = "15.4%"

[[record]]
molecule = "CCOc1ccc(NC(C)=O)cc1"
recorded_metric = "Neu"
result = "23.6%"

[[record]]
molecule = "O=C(OC[C@H]1O[C@@H](OC(=O)c2cc(O)c(O)c(OC(=O)c3cc(O)c(O)c(O)c3)c2)[C@H](OC(=O)c2cc(O)c(O)c(OC(=O)c3cc(O)c(O)c(O)c3)c2)[C@@H](OC(=O)c2cc(O)c(O)c(OC(=O)c3cc(O)c(O)c(O)c3)c2)[C@@H]1OC(=O)c1cc(O)c(O)c(OC(=O)c2cc(O)c(O)c(O)c2)c1)c1cc(O)c(O)c(OC(=O)c2cc(O)c(O)c(O)c2)c1"
recorded_metric = "Neu"
result = "14.8%"

[[record]]
molecule = "COC(=O)C1=C(C)NC(C)=C(C(=O)OC)C1c1ccccc1[N+](=O)[O-]"
recorded_metric = "Neu"
result = "21.4%"

[[record]]
molecule = "CNC(=C[N+](=O)[O-])NCCSCc1ccc(CN(C)C)o1"
recorded_metric = "Neu"
result = "18%"

